target: T1, human CD71 extracellular domain (human, UniProt P02786 89-760, biotinylated)
T1 construct: also called hCD71; CD71-ECD
T1 sequence (P02786 89-760): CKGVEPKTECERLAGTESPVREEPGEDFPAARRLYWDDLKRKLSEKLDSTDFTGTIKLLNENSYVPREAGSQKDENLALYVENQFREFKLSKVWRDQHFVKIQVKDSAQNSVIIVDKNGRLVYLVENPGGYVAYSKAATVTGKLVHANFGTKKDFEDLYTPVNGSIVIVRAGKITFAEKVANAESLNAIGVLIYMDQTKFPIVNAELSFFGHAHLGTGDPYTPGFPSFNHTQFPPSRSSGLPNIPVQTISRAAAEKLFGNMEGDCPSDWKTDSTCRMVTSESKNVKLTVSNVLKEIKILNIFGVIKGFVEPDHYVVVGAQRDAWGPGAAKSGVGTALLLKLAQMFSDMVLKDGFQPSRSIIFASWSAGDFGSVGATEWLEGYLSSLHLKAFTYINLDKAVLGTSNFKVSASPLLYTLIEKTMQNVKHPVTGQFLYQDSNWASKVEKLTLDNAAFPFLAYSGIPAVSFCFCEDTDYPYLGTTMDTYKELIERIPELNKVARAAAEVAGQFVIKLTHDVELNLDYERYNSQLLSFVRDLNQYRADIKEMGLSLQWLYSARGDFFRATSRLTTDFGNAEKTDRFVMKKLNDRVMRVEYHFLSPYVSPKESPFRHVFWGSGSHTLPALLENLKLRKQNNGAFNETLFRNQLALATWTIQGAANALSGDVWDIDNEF
protocol.details: primary ELISA; note: test concentration or dose not given here

[
  {
    "binder": "CD71-binding FN3 domain of SEQ ID NO: 497 (designed binder) MLPAPKNLVVSRVTEDSARLSWTAPDAAFDSFFIGYLEPQPPGEAITLLVPGSERSYDLTGLKPGTEYNVTIQGVKGGFPSKPLYAYFTT",
    "u": "RLU",
    "RLU": "2.93e+06"
  },
  {
    "binder": "CD71-binding FN3 domain of SEQ ID NO: 531 (designed binder) MLPAPKNLVVSRVTEDSARLSWTAPDAAFDSFEIGYFEYSYYGEAIVLTVPGSERSYDLTGLKPGTEYRVYIGGVKGGGWSRPLSAIFTT",
    "u": "RLU",
    "RLU": "1.6e+06"
  },
  {
    "binder": "CD71-binding FN3 domain of SEQ ID NO: 488 (designed binder) MLPAPKNLVVSRVTEDSARLSWTAPDAAFDSFIIQYGEYLRWGEAIVLTVPGSERSYDLTGLKPGTEYQVEIYGVKGGPLSKPLSAIFTT",
    "u": "RLU",
    "RLU": "3.18e+06"
  },
  {
    "binder": "CD71-binding FN3 domain of SEQ ID NO: 534 (designed binder) MLPAPKNLVVSRVTEDSARLSWTAPDAAFDSFFIGYLEPQPPGEAIHLLVPGSERSYDLTGLKPGTEYNVTIQGVKGGFPSGPLQASFTT",
    "u": "RLU",
    "RLU": "5.2e+06"
  }
]
